Value source: ChEMBL document CHEMBL4390697

species: Homo sapiens; assay: Induction of keratin-10 expression in human PHK160b cells at 50 uM incubated for 48 hrs by quantitative RT-PCR analysis relative to untreated control; format: functional
The source made the active and inactive calls. The rule behind the calls is not given here.
Classes used: TRUE = active, FALSE = inactive

{"compound": "O=C(OC[C@H]1OC[C@H](O)[C@@H](O)[C@@H]1O)c1ccccc1", "assigned.label": "FALSE"}
{"compound": "O=C(O[C@H]1[C@H](O)[C@@H](CO)OC[C@@H]1O)c1cc(O)c(O)c(O)c1", "assigned.label": "TRUE"}
{"compound": "OC[C@H]1OC[C@H](O)[C@@H](O)[C@@H]1O [1,5-Anhydrosorbitol]", "assigned.label": "FALSE"}
{"compound": "O=C(O[C@H]1CO[C@H](CO)[C@@H](O)[C@@H]1O)c1cc(O)c(O)c(O)c1", "assigned.label": "TRUE"}
{"compound": "COc1cc(C(=O)OC[C@H]2OC[C@H](O)[C@@H](O)[C@@H]2O)cc(OC)c1OC", "assigned.label": "FALSE"}
{"compound": "O=C(O[C@H]1[C@H](O)[C@@H](O)CO[C@@H]1CO)c1cc(O)c(O)c(O)c1", "assigned.label": "TRUE"}
